# Test system: HIF-1-mediated transcription
# Assay protocol: HIF-1-mediated transcription under hypoxia, LN229-HRE-Lux luciferase reporter assay
# Format: cell-based, human
# Condition label: Homo sapiens, 24 h; LN229-HRE-Lux cells, hypoxia (1% O2), 24 h; read-out: IC50
Endpoint name: IC50 (nM)

CCCCN(Cc1ccc2c(c1)C=CC(C)(C)O2)S(=O)(=O)c1ccc(OC)c(OC)c1 [Compound 5c]
3300
Cc1ccc(N(C)Cc2ccc3c(c2)C=CC(C)(C)O3)c(C)c1 [Compound 3c]
2600

1: COc1ccc(S(=O)(=O)N(Cc2ccc3c(c2)C=CC(C)(C)O3)C(C)(C)C)cc1OC [Compound 5d]
2: CCC1(C)C=Cc2cc(CN(c3ccccc3)S(=O)(=O)c3ccc(OC)c(OC)c3)ccc2O1 (stereo not shown) [Compound 10]
Select one: 1 or 2 . Criterion: greater recorded IC50. Indicate your choice by writing its label. 1
(1: 3500 nM, 2: 2200 nM)
